STUDY SYSTEM: USP7 (Homo sapiens, UniProt Q93009)
Construct: full length human USP7 protein
Sequence (Q93009 whole entry): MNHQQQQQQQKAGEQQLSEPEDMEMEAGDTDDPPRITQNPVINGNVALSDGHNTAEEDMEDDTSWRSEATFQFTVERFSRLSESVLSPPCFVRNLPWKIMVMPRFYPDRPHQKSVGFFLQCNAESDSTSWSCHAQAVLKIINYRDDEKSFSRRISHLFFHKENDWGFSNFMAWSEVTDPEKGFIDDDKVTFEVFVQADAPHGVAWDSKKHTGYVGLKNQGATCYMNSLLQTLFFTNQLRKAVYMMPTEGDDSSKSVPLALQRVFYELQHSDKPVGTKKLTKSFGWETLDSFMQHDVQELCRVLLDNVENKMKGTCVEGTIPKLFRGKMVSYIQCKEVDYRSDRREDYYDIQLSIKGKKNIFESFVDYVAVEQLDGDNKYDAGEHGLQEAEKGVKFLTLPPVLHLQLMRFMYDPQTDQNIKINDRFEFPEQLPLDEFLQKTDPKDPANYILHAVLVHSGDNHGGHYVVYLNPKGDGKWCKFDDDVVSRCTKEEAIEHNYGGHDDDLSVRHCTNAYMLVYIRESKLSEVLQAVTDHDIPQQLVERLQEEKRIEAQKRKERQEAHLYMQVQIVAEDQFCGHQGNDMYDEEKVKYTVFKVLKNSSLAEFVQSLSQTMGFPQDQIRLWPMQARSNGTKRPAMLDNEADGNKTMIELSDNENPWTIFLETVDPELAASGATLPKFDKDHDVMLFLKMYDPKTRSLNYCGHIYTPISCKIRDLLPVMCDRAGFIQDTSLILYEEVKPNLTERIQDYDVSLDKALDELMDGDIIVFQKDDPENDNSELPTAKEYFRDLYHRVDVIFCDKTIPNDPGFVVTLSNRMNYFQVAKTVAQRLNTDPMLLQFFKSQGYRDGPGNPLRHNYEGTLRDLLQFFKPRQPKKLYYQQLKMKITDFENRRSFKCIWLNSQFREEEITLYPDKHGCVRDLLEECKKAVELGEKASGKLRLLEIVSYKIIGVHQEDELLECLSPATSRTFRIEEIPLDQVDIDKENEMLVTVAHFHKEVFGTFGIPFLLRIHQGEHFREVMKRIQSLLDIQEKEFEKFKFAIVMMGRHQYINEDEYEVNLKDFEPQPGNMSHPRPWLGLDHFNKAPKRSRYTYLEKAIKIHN
METHOD NOTES: USP7, Ub-PLA2 assay
EXPERIMENTAL SETUP: Ub-PLA2 / NBD C6-HPC fluorescence, 30 minute preincubation; read-out: EC50 for inhibition of USP7

MOLECULE: CC(=O)c1cc([N+](=O)[O-])c(Sc2nccn2C)s1
EC50: 1000 to 10000 nM
--
MOLECULE: COc1ccc(Cl)cc1NC(=O)c1cc([N+](=O)[O-])c(Sc2c(Cl)cncc2Cl)s1
EC50: ≤ 1000 nM
--
MOLECULE: CSc1ccc(NC(=O)c2cc([N+](=O)[O-])c(Sc3c(Cl)cncc3Cl)s2)cc1
EC50: ≤ 1000 nM
--
MOLECULE: O=C(NC1CCNC1)c1cc([N+](=O)[O-])c(Sc2c(Cl)cncc2Cl)s1 (stereo not shown)
EC50: ≤ 1000 nM
--
MOLECULE: O=C(NCCCN1CCCCC1)c1cc([N+](=O)[O-])c(Sc2c(Cl)cncc2Cl)s1
EC50: ≤ 1000 nM
--
MOLECULE: O=C(c1cc([N+](=O)[O-])c(Sc2c(Cl)cncc2Cl)s1)N1CCN(CCO)CC1
EC50: 1000 to 10000 nM
--
MOLECULE: CS(=O)(=O)CCCNC(=O)c1cc([N+](=O)[O-])c(Sc2c(Cl)cncc2Cl)s1
EC50: 1000 to 10000 nM
--
MOLECULE: CC(=O)c1cc([N+](=O)[O-])c(Sc2ccccc2C(F)(F)F)s1
EC50: 1000 to 10000 nM
--
MOLECULE: CC(=O)c1cc([N+](=O)[O-])c([S+]([O-])c2ccc(Cl)cc2Cl)s1 (stereo not shown)
EC50: > 10000 nM
--
MOLECULE: O=C(NCCC(=O)N1CCCC1)c1cc([N+](=O)[O-])c(Sc2c(Cl)cncc2Cl)s1
EC50: 1000 to 10000 nM
--
MOLECULE: CN1CCC(NC(=O)c2cc([N+](=O)[O-])c(Sc3c(F)cncc3F)s2)CC1
EC50: 1000 to 10000 nM
--
MOLECULE: CCN1CCC(CCNC(=O)c2cc([N+](=O)[O-])c(Sc3c(Cl)cncc3Cl)s2)CC1
EC50: ≤ 1000 nM
--
MOLECULE: O=C(NCCc1ccccn1)c1cc([N+](=O)[O-])c(Sc2c(Cl)cncc2Cl)s1
EC50: ≤ 1000 nM
--
MOLECULE: COc1cccc(NC(=O)c2cc([N+](=O)[O-])c(Sc3c(Cl)cncc3Cl)s2)c1
EC50: ≤ 1000 nM
--
MOLECULE: CN1CCC(NC(=O)Nc2cc([N+](=O)[O-])c(Sc3c(Cl)cncc3Cl)s2)CC1
EC50: 1000 to 10000 nM
--
MOLECULE: O=C(Nc1cccc(Br)c1)c1cc([N+](=O)[O-])c(Sc2c(Cl)cncc2Cl)s1
EC50: ≤ 1000 nM
--
MOLECULE: O=C(NCCCc1ccccn1)c1cc([N+](=O)[O-])c(Sc2c(Cl)cncc2Cl)s1
EC50: ≤ 1000 nM
--
MOLECULE: O=C(Nc1cnc2ccccc2c1)c1cc([N+](=O)[O-])c(Sc2c(Cl)cncc2Cl)s1
EC50: ≤ 1000 nM
--
MOLECULE: O=C(NCc1cccnc1)c1cc([N+](=O)[O-])c(Sc2c(Cl)cncc2Cl)s1
EC50: ≤ 1000 nM
--
MOLECULE: CN1CCN(C(=O)CNC(=O)c2cc([N+](=O)[O-])c(Sc3c(Cl)cncc3Cl)s2)CC1
EC50: 1000 to 10000 nM
--
MOLECULE: CC(=O)c1cc([N+](=O)[O-])c(Sc2cc(Cl)cc(Cl)c2)s1
EC50: 1000 to 10000 nM
--
MOLECULE: CN1CCC(NC(=O)c2cc(C#N)c(Sc3c(Cl)cncc3Cl)s2)CC1
EC50: 1000 to 10000 nM
--
MOLECULE: CN1CCC(NC(=O)c2cc([N+](=O)[O-])c(Oc3c(Cl)cncc3Cl)s2)CC1
EC50: > 10000 nM
--
MOLECULE: O=C(NCc1ccccc1Cl)c1cc([N+](=O)[O-])c(Sc2c(Cl)cncc2Cl)s1
EC50: 1000 to 10000 nM
--
MOLECULE: COC(=O)c1cc([N+](=O)[O-])c(Sc2c(Cl)cncc2Cl)s1
EC50: 1000 to 10000 nM

---

Some compounds, each annotated with its measured pEC50.
STUDY SYSTEM: USP7 (Homo sapiens, UniProt Q93009)
Construct: full length human USP7 protein
METHOD NOTES: USP7, Ub-PLA2 assay
EXPERIMENTAL SETUP: Ub-PLA2 / NBD C6-HPC fluorescence, 30 minute preincubation; read-out: EC50 for inhibition of USP7
pEC50: −log10 of the molar value.
METRIC NAME: pEC50

LINE NOTATION: CN1CCC(NC(=O)c2cc([N+](=O)[O-])c(Sc3c(Cl)c[n+]([O-])cc3Cl)s2)CC1
METRIC NAME: pEC50
RESULT: 5.00 to 6.00
--
LINE NOTATION: CN(C)c1ccc(NC(=O)c2cc([N+](=O)[O-])c(Sc3c(Cl)cncc3Cl)s2)cc1
METRIC NAME: pEC50
RESULT: 5.00 to 6.00
--
LINE NOTATION: CN(C)c1ccc(CNC(=O)c2cc([N+](=O)[O-])c(Sc3c(Cl)cncc3Cl)s2)cc1
METRIC NAME: pEC50
RESULT: ≥ 6.00
--
LINE NOTATION: CN1CCN(CCNC(=O)c2cc([N+](=O)[O-])c(Sc3c(Cl)cncc3Cl)s2)CC1
METRIC NAME: pEC50
RESULT: 5.00 to 6.00
--
LINE NOTATION: Cc1cccc(CNC(=O)c2cc([N+](=O)[O-])c(Sc3c(Cl)cncc3Cl)s2)c1
METRIC NAME: pEC50
RESULT: ≥ 6.00
--
LINE NOTATION: COc1ccc(NC(=O)c2cc([N+](=O)[O-])c(Sc3c(Cl)cncc3Cl)s2)cn1
METRIC NAME: pEC50
RESULT: ≥ 6.00
--
LINE NOTATION: CN(C)CCNc1ccc(NC(=O)c2cc([N+](=O)[O-])c(Sc3c(Cl)cncc3Cl)s2)cn1
METRIC NAME: pEC50
RESULT: ≥ 6.00
--
LINE NOTATION: CC(=O)c1cc([N+](=O)[O-])c(Sc2ccc(Cl)c(Cl)c2)s1
METRIC NAME: pEC50
RESULT: 5.00 to 6.00
--
LINE NOTATION: Nc1ccc(NC(=O)c2cc([N+](=O)[O-])c(Sc3c(Cl)cncc3Cl)s2)cc1
METRIC NAME: pEC50
RESULT: ≥ 6.00
--
LINE NOTATION: O=C(O)CNC(=O)c1cc([N+](=O)[O-])c(Sc2c(Cl)cncc2Cl)s1
METRIC NAME: pEC50
RESULT: 5.00 to 6.00
--
LINE NOTATION: O=C(NCCN1CCCCC1)c1cc([N+](=O)[O-])c(Sc2c(Cl)cncc2Cl)s1
METRIC NAME: pEC50
RESULT: ≥ 6.00
--
LINE NOTATION: NS(=O)(=O)c1ccc(NC(=O)c2cc([N+](=O)[O-])c(Sc3c(Cl)cncc3Cl)s2)cc1
METRIC NAME: pEC50
RESULT: ≥ 6.00
--
LINE NOTATION: COC(=O)c1cc([N+](=O)[O-])c(Sc2c(F)cncc2F)s1
METRIC NAME: pEC50
RESULT: 5.00 to 6.00
--
LINE NOTATION: COc1cc(NC(=O)c2cc(C#N)c(Sc3c(Cl)cncc3Cl)s2)ccc1OCCCN(C)C
METRIC NAME: pEC50
RESULT: ≥ 6.00
--
LINE NOTATION: CS(=O)(=O)c1ccc(CNC(=O)c2cc([N+](=O)[O-])c(Sc3c(Cl)cncc3Cl)s2)cc1
METRIC NAME: pEC50
RESULT: ≥ 6.00
--
LINE NOTATION: O=C(NCCCN1CCCCC1)c1cc([N+](=O)[O-])c(Sc2ccc(F)cc2F)s1
METRIC NAME: pEC50
RESULT: < 5.00
--
LINE NOTATION: CC(=O)c1cc([N+](=O)[O-])c(Sc2nccs2)s1
METRIC NAME: pEC50
RESULT: < 5.00
--
LINE NOTATION: CC(C)(C)OC(=O)N1CCC(NC(=O)c2cc([N+](=O)[O-])c(Sc3c(Cl)cncc3Cl)s2)CC1
METRIC NAME: pEC50
RESULT: 5.00 to 6.00
--
LINE NOTATION: O=C(NCc1ccc(Br)cc1)c1cc([N+](=O)[O-])c(Sc2c(Cl)cncc2Cl)s1
METRIC NAME: pEC50
RESULT: ≥ 6.00
--
LINE NOTATION: COC(=O)c1ccc(CNC(=O)c2cc([N+](=O)[O-])c(Sc3c(Cl)cncc3Cl)s2)cc1
METRIC NAME: pEC50
RESULT: ≥ 6.00
--
LINE NOTATION: CC(=O)c1cc([N+](=O)[O-])c(Sc2cccc3ccccc23)s1
METRIC NAME: pEC50
RESULT: < 5.00
--
LINE NOTATION: O=C(Nc1ccccc1)c1cc([N+](=O)[O-])c(Sc2c(Cl)cncc2Cl)s1
METRIC NAME: pEC50
RESULT: ≥ 6.00
--
LINE NOTATION: CC(=O)c1cc([N+](=O)[O-])c(Sc2ccc(-c3ccccc3)cc2)s1
METRIC NAME: pEC50
RESULT: < 5.00

Source listed as patent US8680139B2.
